# METHOD: protein stability index of a GFP-peptide fusion (yeast GPS) (PSI 1-4); higher = more stable; sorted into four equal gates, so the index is relative within each strain
# CONDITION: doa10∆
Could you please report measured protein stability index for the items listed next?
Number only, no unit.

Item TIKISTNDDSIKNLTVQ [RGR1] : provide protein stability index 2.88

Item SLLGGFDENIARDIISH [PCI8] : provide protein stability index 2.83

Item KTRFKGSQFIVVSLKEG [SMC2] : provide protein stability index 3.46

Item NFALTTLIDLVKHSPGA [ECM29] : provide protein stability index 1.61

Item LVRRLSDIKQGYTQHGG [PRE9] : provide protein stability index 2.5

Item RILQQLKLDKIIHVLTT [RGR1] : provide protein stability index 1.64

Item HIKKLLHQYYGDDESKI [FAS1] : provide protein stability index 2.24

Item QKVSQLESADKQLEKRD [POP4] : provide protein stability index 3.26

Item DNSATSYYELETIIFDS [RRI1] : provide protein stability index 3.19

Item TSQNPQRDAEISQPKSM [BRR2] : provide protein stability index 3.27

Item DIISGKIHSILPVMESL [YJR042W/NUP85] : provide protein stability index 2.85

Item QDQYKEGIKVVDIDDPD [SNF2] : provide protein stability index 2.97

Item EIINNKTSSQTSLSSKD [YMR153W/NUP53] : provide protein stability index 2.33

Item ELDAQTLPGDDELDQEI [RPT5] : provide protein stability index 3.32

Item QGVTCLHLAVGKKWFEV [NAS6] : provide protein stability index 2.76

Item NGGSEEEITCALDYLIP [MED7] : provide protein stability index 3.45

Item GSGQPDNDTVVTNDDKS [SRB8] : provide protein stability index 3.08

Item AIPLLKVLRKFRVQSQS [NUT1] : provide protein stability index 1.69

Item AETDYVDPKRLAMVIIK [DSN1] : provide protein stability index 3.13

Item EILGINLANEQPVLEKP [SIR4] : provide protein stability index 3

Item IESQNLDLIPHSSSVFK [SRB4] : provide protein stability index 2.46

Item EHWKVRNFKKANLVNKE [BRN1] : provide protein stability index 2.06

Item FATNEERQMNFLTNELI [SWI3] : provide protein stability index 3.28

Item RVVYLKHLEDNTLLVTG [RPL6B] : provide protein stability index 1.89

Item LVKIDDLSANQRETMKE [SMC1] : provide protein stability index 3.29

Item GLLDLERVIVVTGFAEV [FAS2] : provide protein stability index 2.9

Item QSLGLDDLQKFNGIENQ [ISW2] : provide protein stability index 2.77

Item EVNISSLDAREANFDLI [RPC40] : provide protein stability index 3.4

Item KEIRAFDKLLNIPRREL [SRB4] : provide protein stability index 2.6

Item TVVQVYDNGQVFPSSIL [RPP0] : provide protein stability index 1.19

Item SAGAVFKSSVEMGKTDK [YOR098C/NUP1] : provide protein stability index 3.5

Item EHRIRVFFDKRIGQEVD [RPS6A] : provide protein stability index 3.25

Item TRGGASALIENNLFRII [YJL039C/NUP192] : provide protein stability index 2.48

Item LLTNFHGMDFTTDKLRS [RPS1A] : provide protein stability index 2.52

Item PDSNHLSSETGIKLALD [SRB4] : provide protein stability index 3.3

Item WYIEKVIRIPMQENDKI [CSI1] : provide protein stability index 3.05

Item IDWASPEYGRIIASASY [YGL100W/SEH1] : provide protein stability index 2.8

Item DGTEYVLSSVREPDFWV [MED6] : provide protein stability index 3.49

Item TYLNEVLEKDAAIVKKY [YGR119C/NUP57] : provide protein stability index 3.27

* * *

Could you please report measured protein stability index for the items listed next?
# METHOD: protein stability index of a GFP-peptide fusion (yeast GPS) (PSI 1-4); higher = more stable; sorted into four equal gates, so the index is relative within each strain
# CONDITION: san1∆
Number only, no unit.

Item PFKRKMLLVDIIPSRMG [REC8] : provide protein stability index 2.26

Item GSRKVAGILRGYDIFLN [SMX2] : provide protein stability index 1.83

Item TFLPPLLLKLASPHASV [ECM29] : provide protein stability index 1.66

Item AKRHRKILRDNIQGITK [HHF1] : provide protein stability index 3.21

Item VKALRNVPGVETANVAS [RPL4A] : provide protein stability index 2.98

Item QIRACKDLKHIIYYKFN [PRP8] : provide protein stability index 1.84

Item KTTPNTASSEASAGSKE [YMR153W/NUP53] : provide protein stability index 3.16

Item KNHTHNLPGNITVVLGV [RRP4] : provide protein stability index 2.32

Item QKVSQLESADKQLEKRD [POP4] : provide protein stability index 3.27

Item IHLLHDDRGPVLESIVA [BRR2] : provide protein stability index 3.24

Item SDNNSRIMSRNFYLKRF [SWI1] : provide protein stability index 2.95

Item TGNTTSKSAFSFGTANT [YOR098C/NUP1] : provide protein stability index 1.95

Item DVIHFEDSSILQSIVNE [PCI8] : provide protein stability index 3.04

Item RSVDRAGRKFKSRRCDD [POP4] : provide protein stability index 3.33

Item NLSEARLVIKEALVERR [RPB4] : provide protein stability index 2.83

Item KTQEYYTQYTNDYLEKH [CDC53] : provide protein stability index 2.96

Item QPLFSTVPEYLKTADNR [PGD1] : provide protein stability index 2.87

Item KAAFLGSEVRLRDDTLP [COR1] : provide protein stability index 2.93

Item AKAVWENIIIVGGTTSI [ARP9] : provide protein stability index 1.67

Item PFNQGSKQDVEALIEFI [FAS2] : provide protein stability index 3.01

Item GVDLKLKYSKRRSLKKQ [CSN12] : provide protein stability index 3.27

Item QIDQLNRLLPNLPEEER [GRR1] : provide protein stability index 2.05

Item KPTSHKQLQQPKSSPLK [SIR4] : provide protein stability index 3.04

Item QEKESQIQLAESELSLL [SMC4] : provide protein stability index 1.89

* * *

# METHOD: protein stability index of a GFP-peptide fusion (yeast GPS) (PSI 1-4); higher = more stable; sorted into four equal gates, so the index is relative within each strain
# CONDITION: san1∆
Lab note: class by protein stability index, see low-valued = under 2, mid-valued = from 2 up to 3, high-valued = 3 and over

Returns: class label. Input: YTNSVELRSLSKKDFKI [YMR129W/POM152] mid-valued

Returns: class label. Input: GLLDLERVIVVTGFAEV [FAS2] mid-valued

Returns: class label. Input: SVKGKVVIDAFRLIDTG [RPN11] low-valued

Returns: class label. Input: DRKNRAPPQRPRFNREN [RPS26A] high-valued

Returns: class label. Input: CYLRWQHLRNEHGMNAP [SNF2] high-valued

Returns: class label. Input: YILANHYLSRVLSDQVG [YJL039C/NUP192] mid-valued

Returns: class label. Input: GKLVVSQEMVPRYFSEA [SIR3] high-valued

Returns: class label. Input: GFNMKKITTSTEDQKVT [SRP68] mid-valued

Returns: class label. Input: LTTFANQVMMDRKIQGW [ARP7] mid-valued

Returns: class label. Input: IHEIDERLAKVNEMNDQ [NNF1] low-valued

Returns: class label. Input: LHKRQQFSESTHNDIDS [YJL039C/NUP192] mid-valued

Returns: class label. Input: KTKILEVAIRDVNLDVR [IRR1] mid-valued

Returns: class label. Input: LWKLLSTVKVSDLNLTD [YLR018C/POM34] mid-valued

Returns: class label. Input: ICNPVHKHREARGLTAT [RPL15B] mid-valued

Returns: class label. Input: QYEHLIKGIREYEEWQK [YDL116W/NUP84] mid-valued

Returns: class label. Input: EHTDVIDELIDTKLRLE [YIL149C/MLP2] mid-valued

Returns: class label. Input: VVGVVGYVETPRGLRSL [RPL3] high-valued

Returns: class label. Input: IRNINVQDALLTNQLYK [SNF2] high-valued

Returns: class label. Input: AVSEKAGHQTSAESWGT [RPL4A] low-valued

Returns: class label. Input: VYYSKRGFKVGLVCADT [SRP54] mid-valued

Returns: class label. Input: LNLSLHKLDLAKRNLDA [SMC2] mid-valued

Returns: class label. Input: LKTFHFAGVASMNVTLG [RPO31] mid-valued

Returns: class label. Input: RGFIKSEGSGSSLVQKG [RPC53] high-valued

Returns: class label. Input: LFPVAAQDSLTVTIASS [RPB8] low-valued

Returns: class label. Input: EYALEAVKRGTCAVGVK [PRE6] mid-valued

Returns: class label. Input: LIGCIDEAKDFIVSGTA [PUP3] mid-valued

Returns: class label. Input: LILSGDTTANNGKVQYF [YJL039C/NUP192] mid-valued

Returns: class label. Input: KPGQNNRQQKKRRFDPS [RRP6] high-valued

Returns: class label. Input: LNLFSNVLKAPFIKSES [SIR4] low-valued

Returns: class label. Input: QDQYKEGIKVVDIDDPD [SNF2] mid-valued

Returns: class label. Input: LLRALKTNEESAKMILL [PRP8] mid-valued

Returns: class label. Input: SFKYLSNNDEDDKDCTI [RGR1] mid-valued

Returns: class label. Input: YVIKALQSLTSKGYVKT [RPS10A] low-valued

Returns: class label. Input: IRGSDQAIPKFQMNCYA [RPN2] low-valued

Returns: class label. Input: TSIEKSSEILSYLSNSL [YML103C/NUP188] low-valued

Returns: class label. Input: LLNEWSHNVDELLEHIE [RPN5] mid-valued

Returns: class label. Input: RCNDNLMRSCFYLMVSS [YJL039C/NUP192] mid-valued

Returns: class label. Input: YLMDSKNVRTRIKLATT [RRI1] low-valued
